The reader will find reported IC50 values listed item by item below.
Tested on: Molt-4 cells
ASSAY_EXPLANATION: CellTiter-Glo Luminescent Cell Viability Assay on leukemia Molt-4 cells
Format: cell-based
STATED_CONDITIONS: 72 hours, read-out: Inhibition of the viability of leukemia cells, IC50

Solved cases (3 shown):
| COMPOUND_SMILES | TARGET | IC50 |
| --- | --- | --- |
| COc1c(-c2ccc(C(F)(F)F)cc2)oc2c(CC=C(C)C)c(O)c(CC=C(C)C)c(O)c2c1=O | Molt-4 cells | 13.2 µM |
| COc1c(-c2ccc(C(F)(F)F)c(F)c2)oc2c(CC=C(C)C)c(O)c(CC=C(C)C)c(O)c2c1=O | Molt-4 cells | > 100 µM |
| COc1c(-c2ccc(F)c(Cl)c2)oc2c(CC=C(C)C)c(O)c(CC=C(C)C)c(O)c2c1=O | Molt-4 cells | 15.3 µM |

Item COc1c(-c2ccc3nccnc3c2)oc2c(CC=C(C)C)c(O)c(CC=C(C)C)c(O)c2c1=O has what recorded IC50?
14.2 µM

====

Test system: MDA-MB-231 cells
ASSAY_EXPLANATION: CellTiter-Glo Luminescent Cell Viability Assay on ER-negative breast cancer MDA-MB-231 cells
Type: cell-based
STATED_CONDITIONS: 72 hours, average ± standard deviation when tested more than 3 times, read-out: Inhibition of the viability of breast cancer cells, IC50
# maps each entry to its pIC50
// pIC50: -log10(molar conc.)

// below: answered compounds
| COMPOUND_SMILES | OBSERVED_MEASUREMENT |
| --- | --- |
| COc1c(-c2ccc(Cl)cc2F)oc2c(CC=C(C)C)c(O)c(CC=C(C)C)c(O)c2c1=O | 4.63 |
| COc1c(-c2ccc3ccccc3c2)oc2c(CC=C(C)C)c(O)c(CC=C(C)C)c(O)c2c1=O | 4.86 |
| COc1c(-c2ccc(C(C)(C)O)cc2)oc2c(CC=C(C)C)c(O)c(CC=C(C)C)c(O)c2c1=O | 5.54 |
| COc1c(-c2ccc(C)cc2)oc2c(CC=C(C)C)c(O)c(CC=C(C)C)c(O)c2c1=O | 4.79 |

Alright, here's another compound for you.
// returns reported pIC50 for input COc1c(-c2cncs2)oc2c(CC=C(C)C)c(O)c(CC=C(C)C)c(O)c2c1=O
4.62

====

Tested on: CoC1 cells
ASSAY_EXPLANATION: CellTiter-Glo Luminescent Cell Viability Assay on ovary cancer CoC1 cells
Format: cell-based
STATED_CONDITIONS: 72 hours, read-out: Inhibition of the viability of ovary cancer cells, IC50
READOUT_NAME: pIC50
For clarity, pIC50 is expressed as the negative log10 of concentration in mol/L.

| COMPOUND | pIC50 |
| --- | --- |
| COc1c(-c2ccc(Cl)c(F)c2)oc2c(CC=C(C)C)c(O)c(CC=C(C)C)c(OC)c2c1=O [Compound 84] | 4.63 |
| COc1ccc(-c2oc3c(CC=C(C)C)c(O)c(CC=C(C)C)c(O)c3c(=O)c2OC)cn1 [Compound 26] | 4.75 |
| COc1cc(-c2oc3c(CC=C(C)C)c(O)c(CC=C(C)C)c(O)c3c(=O)c2OC)ccn1 [Compound 27] | 5.03 |
| COc1c(-c2cncs2)oc2c(CC=C(C)C)c(O)c(CC=C(C)C)c(O)c2c1=O [Compound 25] | 4.85 |
| COc1c(-c2cc(F)cc(F)c2)oc2c(CC=C(C)C)c(O)c(CC=C(C)C)c(O)c2c1=O [Compound 2] | 5.29 |

Here is another compound to look at.
pIC50 lookup needed for COc1c(-c2ccc(F)c(Cl)c2)oc2c(CC=C(C)C)c(O)c(CC=C(C)C)c(O)c2c1=O [Compound 8] , thanks.
4.93

====

Quick reference: pIC50 of the listed items.
Test system: K562 cells
ASSAY_EXPLANATION: CellTiter-Glo Luminescent Cell Viability Assay on leukemia K562 cells
Format: cell-based, human
STATED_CONDITIONS: 72 hours, read-out: Inhibition of the viability of leukemia cells, IC50
A value of pIC50 is the negative decimal logarithm of a concentration given in moles per litre.

| COMPOUND_SMILES | READOUT_NAME | OBSERVED_MEASUREMENT |
| --- | --- | --- |
| COc1c(-c2ccc(C(F)(F)F)cc2)oc2c(CC=C(C)C)c(O)c(CC=C(C)C)c(O)c2c1=O | pIC50 | 4.91 |

Which pIC50 reading was recorded for the compound COc1c(-c2ccc(F)c(Cl)c2)oc2c(CC=C(C)C)c(O)c(CC=C(C)C)c(O)c2c1=O ?
4.89

====

Test system: SK-OV3 cells
ASSAY_EXPLANATION: CellTiter-Glo Luminescent Cell Viability Assay on ovary cancer SK-OV3 cells
Type: cell-based
STATED_CONDITIONS: Homo sapiens, SK-OV-3, 72 hours, read-out: Inhibition of the viability of ovary cancer cells, IC50
READOUT_NAME: IC50 (µM)
Record the value in µM, omitting the unit from your answer.

The examples below pair each entry with its known result.
| COMPOUND | READOUT_NAME | OBSERVED_MEASUREMENT |
| --- | --- | --- |
| COc1ccc(-c2oc3c(CC=C(C)C)c(O)c(CC=C(C)C)c(O)c3c(=O)c2OC)cn1 [Compound 26] | IC50 | 40.1 |
| COc1cc(-c2oc3c(CC=C(C)C)c(O)c(CC=C(C)C)c(O)c3c(=O)c2OC)ccn1 [Compound 27] | IC50 | 7.23 |
| COc1c(-c2cncs2)oc2c(CC=C(C)C)c(O)c(CC=C(C)C)c(O)c2c1=O [Compound 25] | IC50 | 12.6 |

Find the recorded IC50 belonging to COc1c(-c2ccc(F)c(F)c2)oc2c(CC=C(C)C)c(O)c(CC=C(C)C)c(O)c2c1=O [Compound 4] and report it.
6.42
